assay: Saturation solubility of metolazone in TBA:water ratios; type: physicochemical; details: tertiary butyl alcohol/water mixture, aqueous with cosolvent or surfactant or cyclodextrin, thermodynamic from solid, 028A: 20% Tertiary butyl alcohol and 80% water mixture [20:80]; read-out: Average solubility
observation-type: solubility

// sample Cc1ccccc1N1C(=O)c2cc(S(N)(=O)=O)c(Cl)cc2NC1C (stereo not shown) , its solubility was 279 µg/mL

* * *

test: Saturation solubility of metolazone in TBA:water ratios; type: physicochemical; conditions: tertiary butyl alcohol/water mixture, aqueous with cosolvent or surfactant or cyclodextrin, thermodynamic from solid, 028C: 40% Tertiary butyl alcohol and 60% water mixture [40:60]; read-out: Average solubility
observation-type: solubility (µg/mL)
Form entry: value (µg/mL) — number only.

// sample Cc1ccccc1N1C(=O)c2cc(S(N)(=O)=O)c(Cl)cc2NC1C (stereo not shown) , its solubility was 2110
